Every entry's value here was drawn from patent US20090143279A1.

- Tested on: reactive oxygen species
- Type: cell-based, mouse
- applied-conditions: normalized composite Z-score vs mock-treated (DMSO) wells; Conc 20 μM
So basically: is ROS under -0.09? Then class 1. Not under? Then class 0.

Report whether reported ROS is lower than -0.09 (strictly) for CC(=O)Oc1cc(OC(C)=O)c2c(c1)O[C@H](c1ccc(OC(C)=O)c(OC(C)=O)c1)[C@@H](OC(C)=O)C2 [catechin pentaacetate] class 1

Report whether reported ROS is lower than -0.09 (strictly) for COc1cc(OC)c2c(c1)O[C@H](c1ccc(OC)c(OC)c1)[C@@H](O)C2 class 1

Report whether reported ROS is lower than -0.09 (strictly) for COc1c(-c2ccccc2)oc2c(OC)cccc2c1=O class 0

Report whether reported ROS is lower than -0.09 (strictly) for CCCCCC1C(=O)CCC1CC(=O)O (stereo not shown) [dihydrojasmonic acid] class 0

Others:
Report whether reported ROS is lower than -0.09 (strictly) for C=C[C@@](C)(O)CCC1C(=C)CCC2[C@@](C)(CO)CCC[C@]12C (stereo partly drawn) [epi(13)torulosol] class 0

Report whether reported ROS is lower than -0.09 (strictly) for C[C@]12CC[C@H]3[C@@H](CC[C@]4(O)C[C@@H](O)CC[C@]34C=O)[C@@]1(O)CC[C@@H]2C1=CC(=O)OC1 class 0

Report whether reported ROS is lower than -0.09 (strictly) for COC(=O)c1c(C)c2c(c(C)c1OC)OC(=O)c1c(C)c(Cl)c(OC)c(Cl)c1O2 class 1

----------
- System: OXPHOS gene expression
- Format: cell-based, mouse
- applied-conditions: composite Z-score vs mock-treated (DMSO) wells; Conc 20 μM
Kindly return TRUE if reported GE-HTS is no lower than 0.1; return FALSE if it is lower.

Reference set (6 entries):
Record CCN1CCN(C(=O)N[C@@H](C(=O)N[C@@H]2C(=O)N3C(C(=O)O)=C(CSc4nnnn4C)CS[C@H]23)c2ccc(O)cc2)C(=O)C1=O ; criterion: GE-HTS no lower than 0.1. Met? TRUE

Record C=C1C[C@]23C[C@@]1(O)CC[C@H]2[C@@]12C=C[C@H](O)[C@@](C)(C(=O)O1)[C@H]2[C@@H]3C(=O)O ; criterion: GE-HTS no lower than 0.1. Met? FALSE

Record COc1cc(-c2coc3cc(OC)c(OC)c(OC)c3c2=O)cc(OC)c1OC ; criterion: GE-HTS no lower than 0.1. Met? FALSE

Record COC(=O)C[C@H]1C(C)(C)C(=O)[C@@H]2CC3C4=CC(=O)O[C@@H](c5ccoc5)[C@]4(C)CC[C@@H]3[C@@]1(C)C2=O (stereo partly shown) ; criterion: GE-HTS no lower than 0.1. Met? TRUE

Record CC(=O)O[C@@H]1C[C@H]2C(C)(C)C(=O)CC[C@]2(C)[C@H]2CC[C@@]3(C)[C@H](c4ccoc4)OC(=O)[C@H]4O[C@]43[C@@]21C [dihydrogedunin] ; criterion: GE-HTS no lower than 0.1. Met? TRUE

Record COc1ccc([C@@H](C)C(=O)c2ccc(O)cc2O)cc1 [(R)-angolensin] ; criterion: GE-HTS no lower than 0.1. Met? TRUE

Kindly review the next molecule as well.
Record COc1c(O)cc(O)cc1O ; criterion: GE-HTS no lower than 0.1. Met? FALSE

----------
- Test system: OXPHOS gene expression
- Format: cell-based, mouse
- applied-conditions: 20 μM; composite Z-score vs DMSO
So basically: is GE-HTS under -0.5? Then True. Not under? Then False.

Report whether reported GE-HTS is lower than -0.5 (strictly) for CC(=O)OCC[N+](C)(C)C [acetylcholine] False

----------
- Test system: cellular dehydrogenase activity
Below is a list of entries, each paired with its recorded MTT value.
Output spec: single numeric token, no unit.

Input COc1ccc2c(c1)CC[C@@H]1[C@@H]2CC[C@]2(C)[C@@H](O)[C@H](O)C[C@@H]12 , output reported MTT. −1.611

Input Cc1cc(C(C)(C)CC(C)(C)C)ccc1OCCOCC[N+](C)(C)Cc1ccccc1 , output reported MTT. −5.614

Input C[C@]12CC[C@@H](O)C[C@H]1CC[C@@H]1[C@@H]2CC[C@]2(C)C(=O)CC[C@@H]12 [3-alpha-hydroxy-5-beta-androstan-17-one] , output reported MTT. −1.534

Input CC[C@H](C)[C@H](NC)C(=O)O , output reported MTT. 0.372

Others:
Input C[C@]12CCC(=O)C[C@@H]1CC[C@@H]1[C@@H]2CC[C@]2(C)C(=O)CC[C@@H]12 , output reported MTT. −0.601

Input COc1cc(/C=C/C(=O)O)cc(OC)c1OC , output reported MTT. −0.736

----------
Below is a list of entries, each paired with its recorded MTT value.
- System: cellular dehydrogenase activity
- applied-conditions: 20 μM; composite Z-score vs DMSO
Output spec: single numeric token, no unit.

In the examples that follow, each entry is paired with its recorded MTT.
Input C=C[C@H]1CN2CC[C@H]1C[C@H]2[C@H](OC(=O)OCC)c1ccnc2ccc(OC)cc12 [quinine ethyl carbonate] , output reported MTT. −0.071

Input OC(c1cc(C(F)(F)F)nc2c(C(F)(F)F)cccc12)C1CCCCN1 (stereo not shown) , output reported MTT. 0.374

Input NC(=O)c1ccc[n+]([C@@H]2O[C@H](COP(=O)([O-])OP(=O)(O)OC[C@H]3O[C@@H](n4cnc5c(N)ncnc54)[C@H](OP(=O)(O)O)[C@@H]3O)[C@@H](O)[C@H]2O)c1 , output reported MTT. −1.286

Input O=C(O)CCCc1ccc(N(CCCl)CCCl)cc1 , output reported MTT. −1.519

Input NC(=O)c1cc([N+](=O)[O-])cc([N+](=O)[O-])c1 [nitromide] , output reported MTT. −1.071

Input Nc1ccc(C(=O)NCC(=O)O)cc1 , output reported MTT. −0.983

Input CN1Cc2c(N)cccc2C(c2ccccc2)C1 (stereo not shown) , output reported MTT. −0.885

Input Cc1onc(-c2ccccc2Cl)c1C(=O)N[C@@H]1C(=O)N2[C@@H]1SC(C)(C)[C@@H]2C(=O)O , output reported MTT. −1.769

Input CN(C)c1nc(N(C)C)nc(N(C)C)n1 , output reported MTT. −1.416

Others:
Input COc1c2occc2cc2ccc(=O)oc12 , output reported MTT. −0.976

----------
Below is a list of entries, each paired with its recorded mitoOX value.
- System: mtOXPHOS transcripts
- Format: cell-based, mouse
- applied-conditions: composite Z-score vs DMSO; Conc 20 μM
Output spec: single numeric token, no unit.

Input CCCCCc1c2c(cc(O)c1C(=O)O)OC(=O)c1c(cc(OC)cc1C(=O)CCCC)O2 [lobaric acid] , output reported mitoOX. −0.343

Input Cc1cc(O)c(C=O)c2c1C(=O)Oc1c(C)c(O)c3c(c1O2)C(O)OC3=O (centres unmarked) [norstictic acid] , output reported mitoOX. −1.023

Input CC(=O)C1=C(O)[C@@H]2[C@H]3c4c[nH]c5cccc(c45)C[C@H]3C(C)(C)N2C1=O [cyclopiazonic acid] , output reported mitoOX. 0.172

Input CNC(=O)ON=C(C)SC [methomyl] , output reported mitoOX. −0.317

Input COc1cc([C@@H]2c3cc4c(cc3[C@@H](O[C@@H]3O[C@@H]5CO[C@@H](C)O[C@H]5[C@H](O)[C@H]3O)[C@H]3COC(=O)[C@H]23)OCO4)cc(OC)c1O [etoposide] , output reported mitoOX. 1.373

Input CC[C@@H](C)C(=O)O[C@H]1[C@H](O)[C@H]2[C@@H](CN3C[C@@H](C)CC[C@H]3[C@@]2(C)O)[C@@H]2C[C@]34O[C@]5(O)[C@@H](OC(=O)[C@](C)(O)[C@@H](C)O)CC[C@@]3(C)[C@@H]5[C@@H](OC(C)=O)[C@@H](OC(C)=O)[C@H]4[C@@]21O (stereo in doubt) [protoveratrine B] , output reported mitoOX. −0.096

Input CC(=O)Nc1c(I)cc(I)c(C(=O)O)c1I [acetriazoic acid] , output reported mitoOX. −0.320

Input CC1(C)O[C@H]2CC(=O)OC[C@]23[C@H]2CC[C@@]4(C)[C@H](c5ccoc5)OC(=O)[C@H]5O[C@]54[C@]2(C)C(=O)C[C@@H]13 [limonin] , output reported mitoOX. 0.127

Input COc1ccc2c(=O)ccoc2c1 [7-methoxychromone] , output reported mitoOX. −0.451

Input C[C@@]12C(=O)OC(=O)[C@]1(C)[C@H]1CC[C@@H]2O1 [cantharidin] , output reported mitoOX. 2.498

Others:
Input Cc1cc(O)c2c(c1O)C(=O)c1c(O)cc(C)c(O)c1C2=O [reference compound] , output reported mitoOX. −0.739

Input O=C(O)c1cccc(O)c1O [pyrocatechuic acid] , output reported mitoOX. −0.367

Input Cn1c(=O)[nH]c(=O)c2[nH]cnc21 [3-methylxanthine] , output reported mitoOX. −0.856

Input Cc1onc(-c2ccccc2)c1C(=O)N[C@@H]1C(=O)N2[C@@H]1SC(C)(C)[C@@H]2C(=O)[O-].[Na+] [oxacillin sodium] , output reported mitoOX. −0.881

Input C[C@H]1CC[C@]2(NC1)O[C@H]1C[C@H]3[C@@H]4CC[C@H]5C[C@@H](O[C@@H]6O[C@H](CO)[C@H](O[C@@H]7O[C@H](CO)[C@@H](O)[C@H](O[C@@H]8OC[C@@H](O)[C@H](O)[C@H]8O)[C@H]7O[C@@H]7O[C@H](CO)[C@@H](O)[C@H](O)[C@H]7O)[C@H](O)[C@H]6O)CC[C@]5(C)[C@H]4CC[C@]3(C)[C@H]1[C@@H]2C [tomatine] , output reported mitoOX. −1.725

Input C[C@@H]1C[C@H]2CC(=O)[C@H]3CCCN4CCC[C@H]2[C@]34C1 [lycopodine] , output reported mitoOX. −0.411

Input C[C@]12CC[C@@H]3c4ccc(O)cc4CC[C@H]3[C@@H]1CC[C@@H]2O [estradiol] , output reported mitoOX. −0.058

Input C[C@@]12CCc3occc3[C@H]1CC[C@@]13C[C@@H](CC[C@H]12)[C@@](O)(CO)C3 [cafestol] , output reported mitoOX. −1.543

Input C[C@]12CCC3c4ccc(OC(=O)c5ccccc5)cc4CCC3C1CCC2=O (some centres unmarked) [estrone benzoate] , output reported mitoOX. −0.179

Input COC(=O)c1c(C)c2c(c(C)c1O)OC(=O)c1c(C)c(Cl)c(O)c(Cl)c1O2 [leoidin] , output reported mitoOX. −0.638
